# procedure.text: Cytotoxicity against human UACC62 cell line
# Format: cell-based
# condition.details: UACC-62 cells
With a cut-off of 9000 nM, any GI50 strictly below it is called yes; any GI50 meeting it or above is called no.

Here's what some known entries look like.
NCCCn1c2c(c3ccc([N+](=O)[O-])cc3c1=O)C(=O)c1cc3c(cc1-2)OCO3    yes
COc1cc2c(cc1OC)[C@@H]1[C@H](C2=O)c2ccc([N+](=O)[O-])cc2C(=O)N1CCCBr (relative stereo)    no
COc1ccc2c(c1OC)-c1c(c3ccc([N+](=O)[O-])cc3c(=O)n1CCCBr)C2=O    no

// query Given the entry COc1ccc2c(c1OC)-c1c(c3ccc([N+](=O)[O-])cc3c(=O)n1CCCN)C2=O , would its reported GI50 be below 9000 nM?
// result yes

// query Input COc1cc2c(cc1OC)-c1c(c3ccc([N+](=O)[O-])cc3c(=O)n1CCCBr)C2=O ; condition: GI50 strictly below 9000 nM. Does it hold?
// result yes

// query Determine if COc1ccc2c(c1)C(=O)c1c-2n(CCCCl)c(=O)c2cc([N+](=O)[O-])ccc12 shows GI50 strictly lower than 9000 nM.
// result yes

---

# procedure.text: Cytotoxicity against human HOP62 cell line
# Assay type: cell-based
# condition.details: HOP-62 cells
Classes (GI50): low interval: < 5 µM; middle interval: ≥ 5 µM and < 20 µM; high interval: ≥ 20 µM

COc1cc2c(cc1OC)-c1c(c3ccc([N+](=O)[O-])cc3c(=O)n1CCCBr)C2=O    high interval
COc1ccc2c(c1)C(=O)c1c-2n(CCCN=[N+]=[N-])c(=O)c2cc([N+](=O)[O-])ccc12    low interval
NCCCn1c2c(c3ccc([N+](=O)[O-])cc3c1=O)C(=O)c1cc3c(cc1-2)OCO3    low interval

// query Would you mind sorting COc1cc2c(cc1OC)[C@@H]1[C@H](C2=O)c2ccc([N+](=O)[O-])cc2C(=O)N1CCCBr (relative stereo) into the appropriate category?
// result middle interval

// query Please indicate the class for COc1cc2c(c(OC)c1OC)C(=O)c1c-2n(CCCN=[N+]=[N-])c(=O)c2cc([N+](=O)[O-])ccc12 based on its GI50.
// result high interval

// query Which bin should I file COc1cc2c(c(OC)c1OC)-c1c(c3ccc([N+](=O)[O-])cc3c(=O)n1CCCN)C2=O under?
// result low interval

// query Which of the defined bands does the recorded GI50 of COc1ccc2c(c1OC)-c1c(c3ccc([N+](=O)[O-])cc3c(=O)n1CCCBr)C2=O sit within?
// result high interval

// query Using the reported GI50, which band applies to COc1cc2c(cc1OC)-c1c(c3ccc([N+](=O)[O-])cc3c(=O)n1CCCN=[N+]=[N-])C2=O ?
// result high interval

---

The following molecules are shown together with reported GI50 values.
# procedure.text: Cytotoxicity against human HCT116 cell line
# Assay type: cell-based
# condition.details: HCT-116 cells
Entry rule: numbers only, all in nM.

// query Any idea what its GI50 is? The molecule is COc1cc2c(c(OC)c1OC)C(=O)c1c-2n(CCCN)c(=O)c2cc([N+](=O)[O-])ccc12
// result 138

// query What GI50 value was documented for this molecule, COc1ccc2c(c1OC)-c1c(c3ccc([N+](=O)[O-])cc3c(=O)n1CCCN=[N+]=[N-])C2=O ?
// result 2950

// query State the recorded GI50 for this entry: COc1cc2c(c(OC)c1OC)C(=O)c1c-2n(CCCN=[N+]=[N-])c(=O)c2cc([N+](=O)[O-])ccc12
// result 36300

Reference for the values: ChEMBL document CHEMBL1138219
